All figures here come from patent US20250027068.

assayed-target: pooled human IgG (human IgG1,2,3 and 4)
measure-name: Enzyme Activity Endpoint Assay: IgG (ng/µL)
// return numeric value only (unit: ng/µL, not printed)

For the protein PRT-89 (protein) MANQEIRYSEVTPYHVTSVWTKGVTPPAKFTQGEDVFHAPYVANQGWYDITKTFNGKDDLLCGAATAGNMLHWWFDQNKEKIEAYLKKHPEKQKIMFGDQELLDVRKVINTKDDQTNSELFNYFRDKAFPGLSARRLGVMPDLVLDMFINGYYLNVYKTQTTDVNRTYQEKDRRGGIFDAVFTRGDQSKLLTSRHDFKEKNLKEISDLIKKELTEGKALGLSHTYANVRINHVINLWGADFDSNGNLKAIYVTDSDSNASIGMKKYFVGVNSAGKVAISAKEIKEDNIGAQVLGLFTLSTGQDIWNQTN , what Enzyme Activity Endpoint Assay: IgG is on record? 34
